# Tested on: A2780
# experimental protocol: Antiproliferative activity against human A2780 cells assessed as cell growth inhibition measured after 72 hrs by CellTiter 96 non-radioactive cell proliferation assay
# Format: functional, cell-based
# test context: A2780, 72 h
Please use met for IC50 under 7 µM and not met for everything else, ties included.

Decide: IC50 of `CN1c2ccc(NC(=S)Nc3ccc([N+](=O)[O-])cc3)cc2C(C)(C)C(=O)C1(C)C` strictly below 7 µM?
met

Decide: IC50 of `CN1c2ccc(NC(=O)Nc3ccc(OC(F)(F)F)cc3)cc2C(C)(C)C(=O)C1(C)C` strictly below 7 µM?
met

Decide: IC50 of `CN1c2ccc(NC(=S)Nc3ccc([N+](=O)[O-])cc3)cc2C(C)(C)CC1(C)C` strictly below 7 µM?
met

Decide: IC50 of CN1c2ccc(NC(=S)Nc3ccc([N+](=O)[O-])cc3)cc2C(C)(C)C(O)C1(C)C (centres undefined) strictly below 7 µM?
not met

Decide: IC50 of `CN1c2ccc(NC(=O)Nc3ccc(N)cc3)cc2C(C)(C)C(=O)C1(C)C` strictly below 7 µM?
not met

Decide: IC50 of `CN1c2ccc(NC(=S)Nc3ccc(OC(F)(F)F)cc3)cc2C(C)(C)C(=O)C1(C)C` strictly below 7 µM?
met

Decide: IC50 of `CN1c2ccc(NC(=O)Nc3ccc(C(F)(F)F)cc3)cc2C(C)(C)C(=O)C1(C)C` strictly below 7 µM?
met

Decide: IC50 of `CN1c2ccc(NC(=S)Nc3ccc(C(F)(F)F)cc3)cc2C(C)(C)C(=O)C1(C)C` strictly below 7 µM?
met

Decide: IC50 of `CC1(C)CCNc2ccc(NC(=S)Nc3ccc(C(F)(F)F)cc3)cc21` strictly below 7 µM?
met

Decide: IC50 of `CN1c2ccc(NC(=O)Nc3ccc([N+](=O)[O-])cc3)cc2C(C)(C)C(=O)C1(C)C` strictly below 7 µM?
met

Decide: IC50 of CN1c2ccc(NC(=O)Nc3ccc(C(F)(F)F)cc3)cc2C(C)(C)C(O)C1(C)C (centres undefined) strictly below 7 µM?
met

Decide: IC50 of CN1c2ccc(NC(=O)Nc3ccc(OC(F)(F)F)cc3)cc2C(C)(C)C(O)C1(C)C (centres undefined) strictly below 7 µM?
not met

Decide: IC50 of CN1c2ccc(NC(=O)Nc3ccc([N+](=O)[O-])cc3)cc2C(C)(C)C(O)C1(C)C (centres undefined) strictly below 7 µM?
not met

Decide: IC50 of CN1c2ccc(NC(=S)Nc3ccc(C(F)(F)F)cc3)cc2C(C)(C)C(O)C1(C)C (centres undefined) strictly below 7 µM?
not met

Decide: IC50 of CN1c2ccc(NC(=S)Nc3ccc(OC(F)(F)F)cc3)cc2C(C)(C)C(O)C1(C)C (centres undefined) strictly below 7 µM?
not met

Decide: IC50 of `CC1(C)CC[N+](C)(C)c2ccc(NC(=O)Nc3ccc([N+](=O)[O-])cc3)cc21` strictly below 7 µM?
met
